Answer each item with its documented relative viability.
- System: EBC-1
- Measurement Notes: relative viability (nuclei count vs DMSO), 5 days (fraction); higher = more cells survive
- Particulars: first compound 0.1 µM
Kindly provide the number alone.

Data request: # relative viability lookup, item CCN(CC)CCCCNc1ncc2cc(-c3cc(OC)cc(OC)c3)c(NC(=O)NC(C)(C)C)nc2n1 + C[C@]1(O)C[C@@H](c2nc(-c3ccc4ccc(-c5ccccc5)nc4c3)c3c(N)nccn32)C1 [Linsitinib] (partner 1 µM)
Data returned: 0.994

Data request: # relative viability lookup, item CCN(CC)CCCCNc1ncc2cc(-c3cc(OC)cc(OC)c3)c(NC(=O)NC(C)(C)C)nc2n1 + O=C(c1cc(Cc2n[nH]c(=O)c3ccccc23)ccc1F)N1CCN(C(=O)C2CC2)CC1 [Olaparib] (partner 8 µM)
Data returned: 0.779

---

- System: NCI-H2085
- Measurement Notes: relative viability (nuclei count vs DMSO), 5 days (fraction); higher = more cells survive
- Particulars: first compound 0.6325 µM
Reported Metric: relative viability

Data request: # relative viability lookup, item COCC1(CO)C(=O)C2CCN1CC2 (stereo not drawn) [PRIMA-1MET] + CS(=O)(=O)N1CCN(Cc2cc3nc(-c4cccc5[nH]ncc45)nc(N4CCOCC4)c3s2)CC1 [Pictilisib] (partner 1 µM)
Data returned: 0.419

Data request: # relative viability lookup, item COCC1(CO)C(=O)C2CCN1CC2 (stereo not drawn) [PRIMA-1MET] + Cc1cc(Nc2cc(N3CCN(C)CC3)nc(Sc3ccc(NC(=O)C4CC4)cc3)n2)n[nH]1 [Tozasertib] (partner 0.1 µM)
Data returned: 0.927

Data request: # relative viability lookup, item COCC1(CO)C(=O)C2CCN1CC2 (stereo not drawn) [PRIMA-1MET] + COc1cc2c(Oc3ccc(NC(=O)C4(C(=O)Nc5ccc(F)cc5)CC4)cc3F)ccnc2cc1OCCCN1CCOCC1 [Foretinib] (partner 0.25 µM)
Data returned: 1.01

---

Answer each item with its documented relative viability.
- Tested on: ChaGo-K-1
- Measurement Notes: relative viability (nuclei count vs DMSO), 5 days (fraction); higher = more cells survive
- Particulars: first compound 0.1 µM
Kindly provide the number alone.

Data request: # relative viability lookup, item CCN(CC)CCCCNc1ncc2cc(-c3cc(OC)cc(OC)c3)c(NC(=O)NC(C)(C)C)nc2n1 + O=C(CCCCCCC(=O)Nc1ccccc1)NO [Vorinostat] (partner 1 µM)
Data returned: 0.824

Data request: # relative viability lookup, item O=c1cc(N2CCOCC2)oc2c(-c3cccc4c3sc3ccccc34)cccc12 + Cc1nc(Nc2ncc(C(=O)Nc3c(C)cccc3Cl)s2)cc(N2CCN(CCO)CC2)n1 [Dasatinib] (partner 0.075 µM)
Data returned: 0.517

Data request: # relative viability lookup, item CCN(CC)CCCCNc1ncc2cc(-c3cc(OC)cc(OC)c3)c(NC(=O)NC(C)(C)C)nc2n1 + Nc1ncn([C@H]2C[C@H](O)[C@@H](CO)O2)c(=O)n1 [Decitabine] (partner 2 µM)
Data returned: 0.54

Data request: # relative viability lookup, item O=c1cc(N2CCOCC2)oc2c(-c3cccc4c3sc3ccccc34)cccc12 + CS(=O)(=O)N1CCN(Cc2cc3nc(-c4cccc5[nH]ncc45)nc(N4CCOCC4)c3s2)CC1 [Pictilisib] (partner 1 µM)
Data returned: 0.448

Data request: # relative viability lookup, item O=c1cc(N2CCOCC2)oc2c(-c3cccc4c3sc3ccccc34)cccc12 + NC(=O)Nc1cc(-c2cccc(F)c2)sc1C(=O)N[C@H]1CCCNC1 [AZD7762] (partner 0.2 µM)
Data returned: 0.6

Data request: # relative viability lookup, item CCN(CC)CCCCNc1ncc2cc(-c3cc(OC)cc(OC)c3)c(NC(=O)NC(C)(C)C)nc2n1 + Cc1nc(Nc2ncc(C(=O)Nc3c(C)cccc3Cl)s2)cc(N2CCN(CCO)CC2)n1 [Dasatinib] (partner 0.075 µM)
Data returned: 0.655

Data request: # relative viability lookup, item CCN(CC)CCCCNc1ncc2cc(-c3cc(OC)cc(OC)c3)c(NC(=O)NC(C)(C)C)nc2n1 + CCNC(=O)c1noc(-c2cc(C(C)C)c(O)cc2O)c1-c1ccc(CN2CCOCC2)cc1 [Luminespib] (partner 0.01 µM)
Data returned: 0.727
